Target: monkey DLL3 on CHO-K1-cyno DLL3 cells (cynomolgus monkey)
Sequence (chain, as listed by the source limits assumed): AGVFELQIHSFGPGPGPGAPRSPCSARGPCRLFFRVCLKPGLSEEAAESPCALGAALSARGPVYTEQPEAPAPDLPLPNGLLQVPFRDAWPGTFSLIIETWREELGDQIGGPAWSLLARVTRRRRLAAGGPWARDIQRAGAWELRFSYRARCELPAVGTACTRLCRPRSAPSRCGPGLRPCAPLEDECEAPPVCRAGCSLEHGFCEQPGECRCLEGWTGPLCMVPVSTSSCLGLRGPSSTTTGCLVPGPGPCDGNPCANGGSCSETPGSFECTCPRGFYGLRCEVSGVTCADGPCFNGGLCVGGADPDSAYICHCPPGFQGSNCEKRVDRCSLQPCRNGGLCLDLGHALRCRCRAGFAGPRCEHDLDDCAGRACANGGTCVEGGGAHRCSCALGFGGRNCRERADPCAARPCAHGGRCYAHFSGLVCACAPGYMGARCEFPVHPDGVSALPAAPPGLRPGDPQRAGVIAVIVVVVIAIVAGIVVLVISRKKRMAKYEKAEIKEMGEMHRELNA
Assay: FACS, CHO-K1-cyno DLL3 cells, 0.8 nM antibody
MFI strictly less than 4000 MFI = 1. Otherwise 0.

Ask: Does this binder meet the criterion MFI < 4000 MFI? Hab015VL4VH1a-hFc (scFv, part only; not given: scFv linker and human IgG1 Fc, V domains shown, not shown: another chain or arm of the molecule; a dimerising Fc or GST; small tags and cut ends) VL: NIVLTQSPATLSLSPGERATLSCKASENVGTYVSWFQQKPGQSPRLLIYGASNRYTGIPARFSGSGSGTDFTLTISSLEPEDFAVYYCGQFYSFPSTFGGGTKVEIK VH: EVQLVESGGGLVKPGGSLRLSCAASGITFSNFWMNWVRQAPGKGLEWVGQIRLKSDDYATHYAESVKGRFTISREDSKNTVYLQMNSLKTEDTAVYYCTTGYYFDYWGQGTTVTVSS
Result: 0

Ask: Quick check: MFI of Hab015VL4VH1b-hFc (scFv, part only; not given: VL-VH linker and human IgG1 Fc, V domains shown, not shown: another chain or arm of the molecule; a dimerising Fc or GST; small tags and cut ends) VL: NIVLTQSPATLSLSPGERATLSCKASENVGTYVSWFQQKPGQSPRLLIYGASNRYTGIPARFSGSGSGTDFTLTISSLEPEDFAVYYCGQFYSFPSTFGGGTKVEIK VH: EVQLVESGGGLVKPGGSLRLSCAASGITFSNFWMNWVRQAPGKGLEWVGQIRLKSEDYATHYAESVKGRFTISREDSKNTVYLQMNSLKTEDTAVYYCTTGYYFDYWGQGTTVTVSS under 4000 MFI?
Result: 0

Ask: Bench note: check whether Hab008L1H5-hFc (scFv, part only; not given: VL-VH linker and human IgG1 Fc, V domains shown, not shown: another chain or arm of the molecule; a dimerising Fc or GST; small tags and cut ends) VL: DIQMTQSPSSLSASVGDRVTITCKASQNVGTAVAWYQQKPGKSPKLLIFSASIRYTGVPSRFSGSGSGTDFTLTISSLQPEDFATYYCQQYSSSPYTFGGGTKVEIK VH: EVQLVQSGAEVKKPGASVKVSCKASGYTFTDYYMNWVRRAPGQRLEWMGIINPYNGGTSYNQKFRGRVTITVDKSASTAYMELSSLRSEDTAVYYCSRYDYDYDVEGAMDYWGQGTTVTVSS shows MFI below 4000 MFI
Result: 1

Ask: Below 4000 MFI on MFI? Entry Hab014VL1VH2-hFc (scFv, part only; not given: VL-VH linker and human IgG1 Fc, V domains shown, not shown: another chain or arm of the molecule; a dimerising Fc or GST; small tags and cut ends) VL: DIQMTQSPSSLSASVGDRVTITCKASEDIYNRLAWYQQKPGKVPKLLISGATSLETGVPSRFSGSGSGTDFTLTISSLQPEDVATYYCQQYWSLPWTFGGGTKVEIK VH: EVQLVQSGAEVKKPGASVKVSCKASGYTFTDYYMNWVRQAPGQRLEWMGDINPNHGDTGYNQKFTGRVTLTVDKSASTAYMELSSLRSEDTAVYYCARNFFYYGTTYGWYFDVWGQGTTVTVSS
Result: 0
